# Experimental Target: human CCR2 (Homo sapiens, UniProt P41597)
# Sequence (P41597 1-360 isoform P41597-2): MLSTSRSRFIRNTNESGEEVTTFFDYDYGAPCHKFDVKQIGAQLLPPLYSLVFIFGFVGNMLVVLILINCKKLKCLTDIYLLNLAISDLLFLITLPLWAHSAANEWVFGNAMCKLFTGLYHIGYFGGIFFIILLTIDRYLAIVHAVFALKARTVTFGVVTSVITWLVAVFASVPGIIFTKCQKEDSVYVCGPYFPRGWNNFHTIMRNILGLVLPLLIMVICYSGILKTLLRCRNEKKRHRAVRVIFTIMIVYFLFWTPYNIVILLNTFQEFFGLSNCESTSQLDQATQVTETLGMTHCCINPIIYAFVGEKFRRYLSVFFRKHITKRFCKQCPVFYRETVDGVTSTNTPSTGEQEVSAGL
# Assay Method Text: Functional Ca2+ release test (B-1)
# Assay Conditions: Chem-1 cell line transfected with human CCR2; 50% inhibition of the MCP-1 effect, MCP-1 at EC50 (about 5 nM); in some cases means of several determinations
pIC50: −log10 of the molar value.

[
  {
    "Compound": "O=c1[nH]c(-c2ncccc2Br)nc(C(F)(F)F)c1Oc1ccc(Cl)c(Cl)c1 [Example 181]",
    "Experimental Target": "human CCR2 (Homo sapiens, UniProt P41597)",
    "pIC50": 9.15
  },
  {
    "Compound": "Cn1nc(-c2nc(C(F)(F)F)c(Oc3ccc(Cl)c(Cl)c3)c(=O)[nH]2)c2ccccc21 [Example 136]",
    "Experimental Target": "human CCR2 (Homo sapiens, UniProt P41597)",
    "pIC50": 7.41
  },
  {
    "Compound": "CSc1cccnc1-c1nc(C(F)(F)F)c(Oc2ccc(Cl)c(C(F)(F)F)c2)c(=O)[nH]1 [Example 114]",
    "Experimental Target": "human CCR2 (Homo sapiens, UniProt P41597)",
    "pIC50": 10.00
  },
  {
    "Compound": "O=c1[nH]c(-c2ncc(F)cc2F)nc(C(F)(F)F)c1Cc1ccc(Cl)c(Cl)c1 [Example 18]",
    "Experimental Target": "human CCR2 (Homo sapiens, UniProt P41597)",
    "pIC50": 7.85
  },
  {
    "Compound": "O=c1[nH]c(-c2cc[nH]n2)nc(C(F)(F)F)c1Cc1ccc(Cl)c(Cl)c1 [Example 50]",
    "Experimental Target": "human CCR2 (Homo sapiens, UniProt P41597)",
    "pIC50": 9.70
  },
  {
    "Compound": "O=c1[nH]c(Cc2ncn[nH]2)nc(C(F)(F)F)c1Cc1ccc(Cl)c(Cl)c1 [Example 92]",
    "Experimental Target": "human CCR2 (Homo sapiens, UniProt P41597)",
    "pIC50": 7.24
  },
  {
    "Compound": "COc1cc(C)nc(-c2nc(C(F)(F)F)c(Oc3ccc(Cl)c(C(F)(F)F)c3)c(=O)[nH]2)n1 [Example 184]",
    "Experimental Target": "human CCR2 (Homo sapiens, UniProt P41597)",
    "pIC50": 9.10
  },
  {
    "Compound": "O=c1[nH]c(-c2noc(C3CC3)n2)nc(C(F)(F)F)c1Oc1ccc(Cl)c(Cl)c1 [Example 82]",
    "Experimental Target": "human CCR2 (Homo sapiens, UniProt P41597)",
    "pIC50": 7.72
  },
  {
    "Compound": "Cc1nc(Cc2nc(C(F)(F)F)c(Cc3ccc(Cl)c(Cl)c3)c(=O)[nH]2)cs1 [Example 174]",
    "Experimental Target": "human CCR2 (Homo sapiens, UniProt P41597)",
    "pIC50": 6.82
  },
  {
    "Compound": "Nc1ccn(-c2nc(C(F)(F)F)c(Oc3ccc(Cl)c(Cl)c3)c(=O)[nH]2)n1 [Example 256]",
    "Experimental Target": "human CCR2 (Homo sapiens, UniProt P41597)",
    "pIC50": 9.10
  },
  {
    "Compound": "Cc1noc(Cc2nc(C(F)(F)F)c(Cc3ccc(Cl)c(Cl)c3)c(=O)[nH]2)n1 [Example 91]",
    "Experimental Target": "human CCR2 (Homo sapiens, UniProt P41597)",
    "pIC50": 7.66
  },
  {
    "Compound": "O=c1[nH]c(-c2cc(O)ccn2)nc(C(F)(F)F)c1Oc1ccc(Cl)c(Cl)c1 [Example 32]",
    "Experimental Target": "human CCR2 (Homo sapiens, UniProt P41597)",
    "pIC50": 7.29
  },
  {
    "Compound": "CNc1cccc(-c2nc(C(F)(F)F)c(Oc3ccc(Cl)c(Cl)c3)c(=O)[nH]2)n1 [Example 166]",
    "Experimental Target": "human CCR2 (Homo sapiens, UniProt P41597)",
    "pIC50": 8.06
  },
  {
    "Compound": "O=c1[nH]c(-n2cccn2)nc(C(F)(F)F)c1Oc1ccc(Cl)c(C(F)(F)F)c1 [Example 73]",
    "Experimental Target": "human CCR2 (Homo sapiens, UniProt P41597)",
    "pIC50": 9.40
  },
  {
    "Compound": "Cc1ccc(-c2nc(C(F)(F)F)c(Oc3ccc(Cl)c(C(F)(F)F)c3)c(=O)[nH]2)nc1C [Example 158]",
    "Experimental Target": "human CCR2 (Homo sapiens, UniProt P41597)",
    "pIC50": 8.06
  },
  {
    "Compound": "COc1cc(-c2nc(C(F)(F)F)c(Cc3ccc(Cl)c(Cl)c3)c(=O)[nH]2)ccn1 [Example 29]",
    "Experimental Target": "human CCR2 (Homo sapiens, UniProt P41597)",
    "pIC50": 7.04
  }
]

----------
# Experimental Target: murine CCR2 (Mus musculus)
# Construct: host or cells: U2OS β-arrestin cell line
# Sequence (P51683 whole entry): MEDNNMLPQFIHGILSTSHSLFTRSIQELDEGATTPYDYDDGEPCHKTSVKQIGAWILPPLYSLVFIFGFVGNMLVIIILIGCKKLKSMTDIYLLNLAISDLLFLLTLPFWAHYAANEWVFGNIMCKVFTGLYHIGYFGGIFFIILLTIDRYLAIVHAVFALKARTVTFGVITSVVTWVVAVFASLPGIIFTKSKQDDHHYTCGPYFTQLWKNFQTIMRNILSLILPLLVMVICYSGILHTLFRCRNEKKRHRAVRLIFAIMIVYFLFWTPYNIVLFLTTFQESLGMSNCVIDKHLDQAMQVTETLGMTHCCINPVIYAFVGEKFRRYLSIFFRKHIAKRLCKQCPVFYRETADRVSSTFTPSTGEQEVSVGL
# Assay Method Text: Functional β-arrestin recruiting test with human MCP-1 (B-2a)
# Assay type: cell-based
# Assay Conditions: U2OS β-arrestin cell line transfected with murine CCR2; agonist human MCP-1 at EC50 (about 3 nM); in some cases means of several determinations
# IC50 per record follows

[
  {
    "Smiles Input": "Cn1ncc(-c2nc(C(F)(F)F)c(Oc3ccc(Cl)c(Cl)c3)c(=O)[nH]2)c1N",
    "IC50 (nM)": 310
  },
  {
    "Smiles Input": "O=c1[nH]c(-c2noc(C(F)(F)F)n2)nc(C(F)(F)F)c1Oc1ccc(Cl)c(Cl)c1",
    "IC50 (nM)": 86
  },
  {
    "Smiles Input": "O=c1[nH]c(-c2ccc3ccccc3n2)nc(C(F)(F)F)c1Oc1ccc(Cl)c(Cl)c1",
    "IC50 (nM)": 535
  },
  {
    "Smiles Input": "O=c1[nH]c(-c2ncccc2Cl)nc(C(F)(F)F)c1Oc1ccc(Cl)c(Cl)c1",
    "IC50 (nM)": 13
  },
  {
    "Smiles Input": "O=c1[nH]c(-c2n[nH]cc2Cl)nc(C(F)(F)F)c1Cc1ccc(Cl)c(Cl)c1",
    "IC50 (nM)": 29
  },
  {
    "Smiles Input": "O=c1[nH]c(-n2cccn2)nc(C(F)(F)F)c1Oc1ccc(Cl)c(Cl)c1",
    "IC50 (nM)": 20
  },
  {
    "Smiles Input": "Cc1n[nH]c(Cc2nc(C(F)(F)F)c(Cc3ccc(Cl)c(Cl)c3)c(=O)[nH]2)n1",
    "IC50 (nM)": 630
  },
  {
    "Smiles Input": "O=c1[nH]c(CN2CCOCC2)nc(C(F)(F)F)c1Cc1ccc(Cl)c(Cl)c1",
    "IC50 (nM)": 630
  },
  {
    "Smiles Input": "Nc1oc(=O)sc1-c1nc(C(F)(F)F)c(Cc2ccc(Cl)c(Cl)c2)c(=O)[nH]1",
    "IC50 (nM)": 230
  },
  {
    "Smiles Input": "COc1ncccc1-c1nc(C(F)(F)F)c(Oc2ccc(Cl)c(Cl)c2)c(=O)[nH]1",
    "IC50 (nM)": 44
  },
  {
    "Smiles Input": "O=c1[nH]c(-c2ncccc2Cl)nc(C(F)(F)F)c1Oc1ccc(Cl)c(C(F)(F)F)c1",
    "IC50 (nM)": 5.1
  },
  {
    "Smiles Input": "Cn1cc(Nc2nc(C(F)(F)F)c(Oc3ccc(Cl)c(Cl)c3)c(=O)[nH]2)cn1",
    "IC50 (nM)": 730
  },
  {
    "Smiles Input": "O=c1[nH]c(-c2ncc(F)cc2F)nc(C(F)(F)F)c1Oc1ccc(Cl)c(Cl)c1",
    "IC50 (nM)": 87
  },
  {
    "Smiles Input": "O=c1[nH]c(-c2ncccc2F)nc(C(F)(F)F)c1Oc1ccc(Cl)c(C(F)(F)F)c1",
    "IC50 (nM)": 20
  },
  {
    "Smiles Input": "O=c1[nH]c(-c2ncccc2Cl)nc(C(F)(F)F)c1Cc1ccc(Cl)c(C(F)(F)F)c1",
    "IC50 (nM)": 35
  },
  {
    "Smiles Input": "Nc1cccc(-c2nc(C(F)(F)F)c(Oc3ccc(Cl)c(Cl)c3)c(=O)[nH]2)n1",
    "IC50 (nM)": 220
  }
]
